Assay: log P by HPLC on a reversed-phase column (C 18), EEC Directive 79/831 Annex V.A8
Assay type: physicochemical
Settings: HPLC reversed-phase C 18, 40° C., 0.1% aqueous formic acid and acetonitrile, linear gradient 10% to 95% acetonitrile
Measured quantity: logP

In [3]: df
Out[3]:
                              smiles_record  result
0  Cc1nc2c(F)c(F)ccc2cc1Nc1cccc(F)c1-c1cccnc1C1CC1    3.25
1  CSc1ncccc1-c1c(F)cccc1Nc1cc2ccc(F)c(F)c2nc1C    3.98
2  Cc1nc2c(F)c(F)ccc2cc1Nc1cccc(F)c1-c1ccnc(F)c1    3.46
3  Cc1ccncc1-c1ccccc1Nc1cc2ccc(F)c(F)c2nc1C    1.86
4  COc1ccc(-c2c(F)cccc2Nc2cc3ccc(F)c(F)c3nc2C)cn1    3.71
5  Cc1nc2c(F)c(F)ccc2cc1Nc1ccccc1-c1ccc(Cl)nc1C    3.94
6  Cc1nc2c(F)c(F)ccc2cc1Nc1ccccc1-c1cncc(C#N)c1    3.04
7  Cc1nc2c(F)c(F)ccc2cc1Nc1cccc(F)c1-c1cc(F)nc(F)c1    3.98
8  Cc1nc2c(F)c(F)ccc2cc1Nc1cccc(F)c1-c1cc(Cl)ncc1F    3.98

====

Experiment: log P by HPLC on a reversed-phase column (C 18), EEC Directive 79/831 Annex V.A8
Type: physicochemical
Conditions: HPLC reversed-phase C 18, 40° C., 0.1% aqueous formic acid and acetonitrile, linear gradient 10% to 95% acetonitrile
Entries annotated with measured logP
Measured quantity: logP

In [3]: df
Out[3]:
                               smiles_record  measured_number
 0  Cc1nc2c(F)c(F)ccc2cc1Nc1cccc(F)c1-c1cncc(Cl)c1             3.60
 1  COc1ccncc1-c1ccccc1Nc1cc2ccc(F)c(F)c2nc1C             1.77
 2  Cc1nc2c(F)c(F)ccc2cc1Nc1cccc(F)c1-c1ccc(Cl)nc1C             4.01
 3  COc1nccc(-c2ccccc2Nc2cc3ccc(F)c(F)c3nc2C)c1Cl             4.09
 4  Cc1nc2c(F)c(F)ccc2cc1Nc1cccc(F)c1-c1cc(Cl)cnc1F             4.05
 5  CCCc1ncccc1-c1ccccc1Nc1cc2ccc(F)c(F)c2nc1C             2.21
 6  CSc1ccc(-c2ccccc2Nc2cc3ccc(F)c(F)c3nc2C)cn1             3.81
 7  Cc1nc2c(F)c(F)ccc2cc1Nc1ccccc1-c1ccc(C#N)nc1             3.25
 8  CSc1ccc(-c2c(F)cccc2Nc2cc3ccc(F)c(F)c3nc2C)cn1             3.91
 9  Cc1nc2c(F)c(F)ccc2cc1Cc1cccc(F)c1-c1cccnc1             2.64
10  Cc1nc2c(F)c(F)ccc2cc1Cc1cccnc1-c1ccnc(F)c1             2.52
11  Cc1nc2c(F)c(F)ccc2cc1Nc1ccccc1-c1cc(Cl)cnc1Cl             4.13
12  CCOc1ccc(-c2c(F)cccc2Nc2cc3ccc(F)c(F)c3nc2C)cn1             4.09
13  Cc1nc2c(F)c(F)ccc2cc1Nc1ccccc1-c1ccnc(F)c1Cl             3.91
